Source: patent US20240002416A1

- assay target: human MRGPRX4-83L (Homo sapiens, UniProt Q96LA9)
- Construct: host or cells: CHO β-arrestin cells
- Sequence (Q96LA9 whole entry): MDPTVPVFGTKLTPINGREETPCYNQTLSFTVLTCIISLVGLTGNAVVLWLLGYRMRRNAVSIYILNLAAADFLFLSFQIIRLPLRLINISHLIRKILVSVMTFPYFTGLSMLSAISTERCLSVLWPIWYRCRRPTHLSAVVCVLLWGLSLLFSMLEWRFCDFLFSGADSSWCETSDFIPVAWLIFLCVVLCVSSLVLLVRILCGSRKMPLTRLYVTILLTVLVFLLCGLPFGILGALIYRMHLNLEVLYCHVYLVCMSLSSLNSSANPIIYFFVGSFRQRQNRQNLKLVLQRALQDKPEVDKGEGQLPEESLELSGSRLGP
- assay procedure: β-arrestin assay (CHO β-arrestin ARMS1-ProLink 2 human MRGPRX4 83L)
- Format: cell-based
- study conditions: Table 4; β-arrestin recruitment, CHO cells, MRGPRX4-83L; read-out: EC50 ± SEM
The threshold is 500 nM. Values of EC50 beneath it are tagged Yes; values meeting or exceeding it are tagged No.

Q: Dear reviewer, please state whether C#CCn1c(=O)c2c(nc(Cc3ccc4ccccc4c3)n2CC)n(CCCCP(=O)(O)O)c1=O has EC50 strictly beneath 500 nM.
Ans: No

Q: Dear reviewer, please state whether C#CCn1c(=O)c2[nH]c(CCc3ccccc3I)nc2n(CCCCP(=O)(O)O)c1=O has EC50 strictly beneath 500 nM.
Ans: Yes

Q: Dear reviewer, please state whether C#CCn1c(=O)c2c(nc(CCc3ccccc3F)n2C)n(CCCCP(=O)(O)O)c1=O has EC50 strictly beneath 500 nM.
Ans: Yes

Q: Dear reviewer, please state whether C#CCn1c(=O)c2c(nc(CCc3ccccc3Br)n2CC2CCC2)n(CCCCP(=O)(O)O)c1=O has EC50 strictly beneath 500 nM.
Ans: Yes

Q: Dear reviewer, please state whether C#CCn1c(=O)c2[nH]c(CCc3ccccc3Br)nc2n(CCCCCP(=O)(O)O)c1=O has EC50 strictly beneath 500 nM.
Ans: No

Q: Dear reviewer, please state whether C#CCn1c(=O)c2c(nc(CCc3ccccc3Br)n2CC)n(CCCCCP(=O)(O)O)c1=O has EC50 strictly beneath 500 nM.
Ans: No

Q: Dear reviewer, please state whether C#CCn1c(=O)c2c(nc(CCc3ccc(Br)cc3)n2C)n(CCCCP(=O)(O)O)c1=O has EC50 strictly beneath 500 nM.
Ans: No

Q: Dear reviewer, please state whether C#CCn1c(=O)c2c(nc(CCc3ccccc3Br)n2C)n(CCCCCCP(=O)(O)O)c1=O has EC50 strictly beneath 500 nM.
Ans: No

Q: Dear reviewer, please state whether C#CCn1c(=O)c2c(nc(CCc3ccc(Br)cc3)n2CC)n(CCCCP(=O)(O)O)c1=O has EC50 strictly beneath 500 nM.
Ans: No
